B1: PBXIP1 (parent)
chain: EKQKQPRWREGTKDSHDPLPSWAE

# Variants of: B1
# PROTOCOL_DETAILS: protein stability index of a GFP-peptide fusion (GPS, HEK-293T) (PSI 1-6); higher = more stable;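 further: lentivirally expressed fusions sorted by FACS into six bins by GFP to DsRed ratio, PSI derived from sequencing read proportions per bin multiplied by bin number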
# CONDITION_CONTEXT: c terminus: a fixed tail appended
Could you please report measured protein stability index for the items listed next?
Numbers only.

INSERT INTO measurements (mutation_annotation, result_value) VALUES
  ('H16N', 2.85),
  ('W8M', 2),
  ('R9A', 1.79),
  ('R7S', 1.23),
  ('L19E', 3.44),
  ('D17R', 2.27);

For every listed record, write down its protein stability index.
1. S15K
2. W22L
3. Q5F
4. E10C
5. Q3S
6. P20K
7. Q3G
8. H16D

stdout:
1. 2.02
2. 3.24
3. 2.09
4. 2.32
5. 1.55
6. 2.66
7. 2.03
8. 2.05

For every listed record, write down its protein stability index.
1. D17S
2. K13D
3. L19R
4. K4T
5. K4E
6. E10K

stdout:
1.86
2.18
2.86
1.92
1.59
2.34

For every listed record, write down its protein stability index.
1. L19N
2. K4D

stdout:
1. 2.49
2. 1.72

Source: the supplement of paper PMC10567573
